Tested on: Huh7-NC12 cells
assayText: PrestoBlue cell viability of liver cancer cells
statedConditions: after two days of treatment
quantityKind: survival rate

O=C(/C=C/c1ccc(/C=C/C(=O)Nc2ccc(C3=NCCN3)cc2)cc1)Nc1ccc(C2=NCCN2)cc1 [GW4869, reference compound] :: about 90%
O=C(Nc1ccc(F)cc1)Nc1ccc(Nc2nc(/C=C/c3ccc(Cl)cc3)nc(N3CCOCC3)n2)cc1 :: about 90%
O=C(Nc1ccc(F)cc1)Nc1ccc(Nc2nc(/C=C/c3ccccc3)nc(N3CCOCC3)n2)cc1 :: about 90%
O=C(Nc1ccc(Nc2nc(/C=C/c3ccccc3)nc(N3CCOCC3)n2)cc1)Nc1ccc(C(=O)O)cc1 [Compound C69A] :: about 90%
